Tested on: Trichoderma virens ATCC 9645
Test method notes: growth yield (OD600) relative to untreated control; higher = less growth inhibition
Experimental conditions: compound concentration: 100 uM; 40 h
Structures can show the parent of a compound that is named as a salt. Screen size: about 1,300 compounds; about 75 (6%) showed an effect of 50% or more. The entries come from a sample that favours strong results as a whole.
Attribute: growth yield
Provide the reading as a plain figure in %.

[
  {
    "Molecule": "CN(C)[C@@H]1C(O)=C(C(N)=O)C(=O)[C@@]2(O)C(O)=C3C(=O)c4c(O)ccc(Cl)c4[C@@](C)(O)[C@H]3C[C@@H]12 [Chlortetracycline hydrochloride]",
    "Unit string": "%",
    "growth yield": 90.5
  },
  {
    "Molecule": "CC(=O)CC(c1ccccc1)c1c(O)c2ccccc2oc1=O (stereo not drawn) [Warfarin]",
    "Unit string": "%",
    "growth yield": 90.9
  },
  {
    "Molecule": "Clc1ccc(CO/N=C(\\Cn2ccnc2)c2ccc(Cl)cc2Cl)c(Cl)c1 [Oxiconazole Nitrate]",
    "Unit string": "%",
    "growth yield": 1.59
  },
  {
    "Molecule": "CC(C)(C)NC[C@H](O)COc1ccccc1C1CCCC1 [Penbutolol sulfate]",
    "Unit string": "%",
    "growth yield": 109
  },
  {
    "Molecule": "CO/N=C(\\C(=O)N[C@@H]1C(=O)N2C(C(=O)O)=C(COC(N)=O)CS[C@H]12)c1ccco1 [Cefuroxime sodium salt]",
    "Unit string": "%",
    "growth yield": 96.9
  }
]

Enquiry: growth yield for CN(C/C=C/C#CC(C)(C)C)Cc1cccc2ccccc12 [Terbinafine] ?
Return: 2.7

Enquiry: What value of growth yield has been recorded for this entry: C#Cc1cccc(Nc2ncnc3cc(OCCOC)c(OCCOC)cc23)c1 [Erlotinib]
Return: 108

Enquiry: State the recorded growth yield for this entry: O=c1oc2ccccc2c(O)c1Cc1c(O)c2ccccc2oc1=O [Dicumarol]
Return: 94

Enquiry: Value lookup for growth yield; key = N=C(NCCCCCCNC(=N)NC(=N)Nc1ccc(Cl)cc1)NC(=N)Nc1ccc(Cl)cc1 [Chlorhexidine]
Return: 2.7

Enquiry: GET /values?readout=growth yield&item= CC[C@]12CCCN3CCc4c(n(c5ccccc45)[C@@](O)(C(=O)OC)C1)[C@@H]32 [Vincamine]
Return: 97.4

Enquiry: Reported growth yield for Cc1scc2c1N(C(=O)CN1CCN(C)CC1)c1ccccc1NC2=O [Telenzepine dihydrochloride] : what is it?
Return: 99.8

Enquiry: Would you mind telling me what growth yield value was observed for CC(C)(C)NC(=O)[C@@H]1C[C@@H]2CCCC[C@@H]2CN1C[C@@H](O)[C@H](Cc1ccccc1)NC(=O)[C@H](CC(N)=O)NC(=O)c1ccc2ccccc2n1 [Saquinavir mesylate] ?
Return: 110

====

System: Trichoderma virens ATCC 9645
Test method notes: growth yield (OD600) relative to untreated control; higher = less growth inhibition
Experimental conditions: compound concentration: 100 uM; 72 h
Where a name gives a salt, the structure may show the parent alone. About 75 (6%) of roughly 1,300 compounds showed an effect of 50% or more. Many of the other results were omitted from the sample, so strong results are more common in it than they were.
Attribute measured: growth yield (%)
Field: numeric (%). Do not append units.

A selection of reference data follows.
[
  {
    "Compound": "CCCCN(CCCC)CCCOC(=O)c1ccc(N)cc1 [Butacaine]",
    "Unit string": "%",
    "Value measured": 98.5
  },
  {
    "Compound": "CC1=C(C(=O)O)N2C(=O)[C@@H](NC(=O)[C@H](N)c3ccc(O)cc3)[C@H]2SC1 [Cefadroxil]",
    "Unit string": "%",
    "Value measured": 106
  },
  {
    "Compound": "CC(Oc1c(Cl)cccc1Cl)C1=NCCN1 (stereo unspecified) [Lofexidine]",
    "Unit string": "%",
    "Value measured": 105
  },
  {
    "Compound": "CO[C@@]1(NC(=O)C(C(=O)O)c2ccc(O)cc2)C(=O)N2C(C(=O)O)=C(CSc3nnnn3C)CO[C@@H]21 (stereo partly specified) [Moxalactam disodium salt]",
    "Unit string": "%",
    "Value measured": 92.7
  },
  {
    "Compound": "CN1[C@@H]2CC[C@H]1C[C@@H](OC(=O)c1c[nH]c3ccccc13)C2 [Tropisetron hydrochloride]",
    "Unit string": "%",
    "Value measured": 104
  },
  {
    "Compound": "CN(C)[C@@H]1C(O)=C(C(N)=O)C(=O)[C@@]2(O)C(O)=C3C(=O)c4c(O)ccc(Cl)c4[C@@](C)(O)[C@H]3C[C@@H]12 [Chlortetracycline hydrochloride]",
    "Unit string": "%",
    "Value measured": 90.9
  },
  {
    "Compound": "c1ccc2[nH]c(-c3cscn3)nc2c1 [Tiabendazole]",
    "Unit string": "%",
    "Value measured": 1.26
  },
  {
    "Compound": "CN(C)[C@@H]1C(O)=C(C(N)=O)C(=O)[C@@]2(O)C(O)=C3C(=O)c4c(O)ccc(Cl)c4[C@@H](O)[C@H]3C[C@@H]12 [Demeclocycline hydrochloride]",
    "Unit string": "%",
    "Value measured": 85.1
  },
  {
    "Compound": "CC(=O)c1ccc2c(c1)N(CCCN1CCC(CCO)CC1)c1ccccc1S2 [Piperacetazine]",
    "Unit string": "%",
    "Value measured": 119
  },
  {
    "Compound": "CC(C)(C)NC[C@@H](O)COc1cccc2c1CCCC2=O [(+) -Levobunolol hydrochloride]",
    "Unit string": "%",
    "Value measured": 98.9
  }
]

Enquiry: Any idea what its growth yield is? The compound is CC(C)(C)NC(=O)[C@@H]1C[C@@H]2CCCC[C@@H]2CN1C[C@@H](O)[C@H](Cc1ccccc1)NC(=O)[C@H](CC(N)=O)NC(=O)c1ccc2ccccc2n1 [Saquinavir mesylate]
Return: 107

Enquiry: State the recorded growth yield for this entry: CCCCOC(=O)c1ccc(O)cc1 [Butylparaben]
Return: 49.5

Value source: the supplement of paper PMC8007513
